All values here come from patent US9670194B2.

test: Compound stability in human liver microsomes; type: in vitro ADME; conditions: human liver microsomes 0.5 mg protein/mL, compound 5 μM, NADPH 1.0 mM, 37° C.
property_label: half-life at 5 μM (min)

Example entries and their recorded answers appear below.
smi | number
CC[C@H](Nc1ncnc(N)c1-c1ncn(C)n1)c1nc2cccc(C)c2c(=O)n1-c1ccccc1C | 17.8
CC[C@H](Nc1ncnc(N)c1-c1ncn(C)n1)c1nc2cccc(Cl)c2c(=O)n1-c1ccccc1F | 10.7
CC[C@H](Nc1ncnc(N)c1-c1noc(C)n1)c1nc2cccc(C)c2c(=O)n1C1CC1 | 19.6
CC[C@H](Nc1ncnc(N)c1-c1ncn(C)n1)c1nc2cccc(Cl)c2c(=O)n1-c1ccccc1 | 17.4
CC[C@H](Nc1ncnc(N)c1-c1nc(COC)n(C)n1)c1nc2cccc(Cl)c2c(=O)n1C1CC1 | 6.1

I: CC[C@H](Nc1ncnc(N)c1-c1ncn(C)n1)c1nc2cccc(C)c2c(=O)n1C1CC1
II: CCc1nc(-c2c(N)ncnc2N[C@@H](C)c2nc3cccc(Cl)c3c(=O)n2C2CC2)no1
III: CC[C@H](Nc1ncnc(N)c1C1=N[C@@H](C)CO1)c1nc2cccc(Cl)c2c(=O)n1-c1ccccc1
Ordering criterion: half-life at 5 μM; begin with the maximum. // rank by listing labels in the order requested
I, II, III
